assay: Volume of distribution at steady state in C57BL/6J mouse at 5 mg/kg, iv or 20 mg/kg, po administered via gavage by LC-MS/MS analysis; type: ADME, organism-based; settings: in vivo, read-out: Vdss
MEASURE_NAME: Vd (L/kg)

COMPOUND_STRUCTURE_STRING	RESULT_VALUE
O=c1cc(NC2CCN(S(=O)(=O)C(F)(F)F)CC2)c2cc(C(c3ccc(Cl)cc3)c3ccc(Cl)cc3)ccc2[nH]1	0.456

----------
biological target: Cannabinoid receptor 1 (Homo sapiens); assay: Inverse agonist activity at human CB1 receptor expressed in HEK293 cells assessed as inhibition of forskolin-induced cAMP accumulation after 30 mins by HTRF assay
MEASURE_NAME: EC50

MOLECULE	MEASURE_NAME	RESULT_VALUE
O=c1cc(NC2CCN(S(=O)(=O)C(F)(F)F)CC2)c2cc(Cc3ccc(Cl)cc3)ccc2[nH]1	EC50	0.26 µM
COc1ccc(C(c2ccc(Cl)cc2)c2ccc3[nH]c(=O)cc(NC4CCN(S(=O)(=O)C(F)(F)F)CC4)c3c2)cc1 (stereo not given)	EC50	0.0084 µM
O=S(=O)(N1CCC(Nc2ccnc3c(O)cc(C(c4ccc(Cl)cc4)c4ccc(Cl)cc4)cc23)CC1)C(F)(F)F	EC50	0.399 µM
O=c1cc(NC2CCN(S(=O)(=O)C(F)(F)F)CC2)c2cc(C(c3ccc(Cl)cc3)c3ccc(Cl)cc3)ccc2[nH]1	EC50	0.0082 to 0.0083 µM
O=c1cc(NC2CCN(S(=O)(=O)C(F)(F)F)CC2)c2cc(C(c3ccc(Cl)cc3)n3ccnc3)ccc2[nH]1 (stereo not given)	EC50	0.005 µM
O=c1cc(Cc2ccc(OC(F)(F)F)cc2)c2cc(C(c3ccc(Cl)cc3)n3ccnc3)ccc2[nH]1 (stereo not given)	EC50	0.113 µM
O=c1cc(/C=C/c2ccccc2)c2cc(C(O)c3ccc(Cl)cc3)ccc2[nH]1 (stereo not given)	EC50	> 10 µM
O=c1cc(OCc2ccccc2)c2cc(C(c3ccc(Cl)cc3)n3ccnc3)ccc2[nH]1 (stereo not given)	EC50	1.15 µM
O=c1cc(/C=C/c2ccccc2)c2cc(C(c3ccc(Cl)cc3)n3ccnc3)ccc2[nH]1 (stereo not given)	EC50	0.165 µM
O=c1cc([C@@H]2C[C@@H]2c2ccccc2)c2cc(C(c3ccc(Cl)cc3)n3ccnc3)ccc2[nH]1 (stereo not given in full)	EC50	0.066 µM
COCCOc1cc(NC2CCN(S(=O)(=O)C(F)(F)F)CC2)c2cc(C(c3ccc(Cl)cc3)c3ccc(Cl)cc3)ccc2n1	EC50	0.022 µM
O=c1cc(CCc2ccccc2)c2cc(C(c3ccc(Cl)cc3)n3ccnc3)ccc2[nH]1 (stereo not given)	EC50	> 10 µM
O=C(Nc1cc(=O)[nH]c2ccc(C(c3ccc(Cl)cc3)n3ccnc3)cc12)c1ccccc1 (stereo not given)	EC50	> 10 µM
COCCOCCOCCOCCOCCOCCOCCOc1cc(NC2CCN(S(=O)(=O)C(F)(F)F)CC2)c2cc(C(c3ccc(Cl)cc3)c3ccc(Cl)cc3)ccc2n1	EC50	0.457 µM
CCOC(=O)CC(=O)N1CCC(Nc2cc(=O)[nH]c3ccc(C(c4ccc(Cl)cc4)c4ccc(Cl)cc4)cc23)CC1	EC50	0.0135 µM

----------
target: Cannabinoid receptor 1 (Homo sapiens, UniProt P21554); experiment: biochemical
Sequence (P21554 whole entry): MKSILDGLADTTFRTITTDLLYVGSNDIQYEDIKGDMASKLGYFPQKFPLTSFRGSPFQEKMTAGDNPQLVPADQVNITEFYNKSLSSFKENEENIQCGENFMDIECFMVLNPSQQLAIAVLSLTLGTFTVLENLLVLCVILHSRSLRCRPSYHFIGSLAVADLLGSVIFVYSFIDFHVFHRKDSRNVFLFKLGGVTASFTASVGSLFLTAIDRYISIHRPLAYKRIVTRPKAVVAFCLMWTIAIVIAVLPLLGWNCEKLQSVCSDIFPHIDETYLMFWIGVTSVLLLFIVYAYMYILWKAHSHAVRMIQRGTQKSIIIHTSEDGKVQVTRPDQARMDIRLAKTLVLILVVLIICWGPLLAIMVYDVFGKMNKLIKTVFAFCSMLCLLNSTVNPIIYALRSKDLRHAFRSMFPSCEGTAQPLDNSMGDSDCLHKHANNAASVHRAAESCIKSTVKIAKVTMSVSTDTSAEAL
pIC50: −log10 of the molar value.

COMPOUND_STRUCTURE_STRING	SYSTEM_UNDER_TEST	pIC50
O=c1cc(NC2CCN(S(=O)(=O)C(F)(F)F)CC2)c2cc(C(c3ccc(Cl)cc3)c3ccc(Cl)cc3)ccc2[nH]1	Cannabinoid receptor 1 (Homo sapiens, UniProt P21554)	8.89
